test system: EKVX NSCLC; assay: NCI tumour cell line growth inhibition, 48 h
recorded.metric: TGI

compound: O=c1[nH]nc(-c2cccc([N+](=O)[O-])c2)[nH]1
measured.result: > 100 µM
--
compound: N#Cc1ccc2c(-c3ccnc(NC4CC4)n3)c(-c3ccc(F)cc3)nn2c1
measured.result: > 25 µM
--
compound: COC1=CC(=O)C2(C=C1OC)OC[C@H]1Oc3c(ccc4c3C=CC(C)(C)O4)C(=O)[C@H]12 (stereo partly drawn)
measured.result: > 100 µM

* * *

system: COLO 205 colon; assay: NCI tumour cell line growth inhibition, 48 h
Examples of compounds with documented TGI follow.

compound: O=C(OC[C@H]1C[C@H]2C(=O)OCCC[C@H]2O1)c1ccccc1
TGI: > 100 µM

compound: O=C(C=P(c1ccccc1)(c1ccccc1)c1ccccc1)c1ccccc1-c1ccccc1C(=O)C=P(c1ccccc1)(c1ccccc1)c1ccccc1
TGI: 0.0222 µM

compound: Cc1nc2nnc(CCCCCCCCc3nnc4nc(C)[nH]n34)n2[nH]1
TGI: > 100 µM

compound: O=C(OC1C#CCSCC#C/C=C\1)c1ccc2c(c1)C(=O)c1ccccc1C2=O (stereo not given)
TGI: > 100 µM

compound: NC1(C(=O)O)CCC(C(=O)O)CC1 (stereo not given)
TGI: > 100 µM

compound: CCOC(=O)c1c(NS(=O)(=O)c2ccccc2)sc2c1CCCC2
TGI: > 100 µM

compound: CN1CCN(Cc2ccc(NC(=O)c3cncc(C#Cc4c(N)ncc5ccccc45)c3)cc2C(F)(F)F)CC1
TGI: 0.812 µM

compound: COC(=O)c1sc2c(c1C(=O)OC)C(=Nc1ccc(OC)cc1)SC2=Nc1ccc(OC)cc1
TGI: 1.31 µM

compound: O=C(c1ccccc1)c1nn(-c2cccc(Cl)c2)c2nc3nc(-c4ccccc4)cc(=O)n3nc12
TGI: > 25 µM

compound: O=C1c2ccccc2CC12Cc1ccc3c(c1C2=O)CCCC3 (stereo not given)
TGI: > 100 µM

compound: CC/C(=C/c1ccc(OC)cc1)[N+](=O)[O-]
TGI: 3.75 µM

compound: Cc1n[nH]c(=O)c2c3c([nH]c12)-c1ccccc1C3
TGI: > 100 µM

compound: CN1C/C(=C\c2ccccc2)C2=NN(C(N)=S)[C@H](c3ccccc3)[C@@H]2C1
TGI: > 100 µM

compound: COc1ccccc1NC(=O)c1sc2ncn(CCOc3ccccc3)c(=O)c2c1C
TGI: > 50 µM

compound: CC1=C(\C=C/C(C)=C/C=C/C(C)=C/C=C/C=C(C)\C=C\C=C(C)/C=C/C2=C(C)CCCC2(C)C)C(C)(C)CCC1
TGI: > 100 µM

* * *

Examples of compounds with documented TGI follow.
tested on: HCC-2998 colon; test: NCI tumour cell line growth inhibition, 48 h

compound: C(=C\c1ccc2ccccc2c1Nc1ccccc1)/c1ccccc1
TGI: > 100 µM

compound: O=C1OCc2nc3c(c(-c4ccccc4C(F)(F)F)c21)C(=O)OC3
TGI: > 100 µM

compound: COC(=O)C(=O)C(C(=O)C(=O)Nc1cc(C)ccc1C)c1nc2ccccc2[nH]c1=O (stereo not drawn)
TGI: > 100 µM

compound: O=C1c2c(c3c4ccccc4n(CC4CO4)c3c3[nH]c4ccccc4c23)C(=O)N1Cc1ccccc1 (stereo not drawn)
TGI: > 100 µM

compound: C[N+]1(CC[N+]2(C)CCCC2c2cccnc2)CCCC1c1cccnc1 (stereo not drawn)
TGI: > 100 µM

compound: CCCCCn1sc(=O)n(Cc2ccc(CNC(=O)C(C)c3ccc(CC(C)C)cc3)cc2)c1=O (stereo not drawn)
TGI: 3.42 µM

compound: CC1(C)OCC(/C=C\C(O)CC2(C)OCCO2)CO1 (stereo not drawn)
TGI: > 100 µM

compound: COc1cc2c(cc1C)NC(=O)/C2=C/c1c(Cl)[nH]c2ccccc12
TGI: 15.4 µM

compound: NS(=O)(=O)c1ccc(Nc2c3ccccc3nc3c(C(=O)NC(CO)(CO)CO)cccc23)cc1
TGI: 0.39 µM

compound: O=c1[nH]nc(-c2cccc([N+](=O)[O-])c2)[nH]1
TGI: > 100 µM

compound: COc1ccc(Cl)cc1NC(=O)O/N=C(\Cl)C(C)C
TGI: 35.7 µM

compound: CCOC(=O)c1c(N2CCN(C)CC2)[nH]c(=O)c(C(c2c(Cl)cccc2Cl)c2c(O)c(C(=O)OCC)c(N3CCN(C)CC3)[nH]c2=O)c1O
TGI: 78.1 µM

compound: O=[N+]([O-])c1ccc(CSC2=C(c3ccc(Cl)cc3)S/C(=C3\SC(SCc4ccc([N+](=O)[O-])cc4)=C(c4ccc(Cl)cc4)S3)S2)cc1
TGI: > 100 µM

* * *

Examples of compounds with documented TGI follow.
test system: U251 CNS; experiment: NCI tumour cell line growth inhibition, 48 h

compound: C=C(CN1CCN(c2cc(C(F)(F)F)cc(C(F)(F)F)c2)CC1)c1ccc(C(=O)Nc2ccccc2N)cc1
TGI: > 100 µM
//
compound: O=C1OC(c2ccccc2)=N/C1=C\c1ccccc1
TGI: > 100 µM
//
compound: COC(=O)[C@@H]1CN(C(=O)Cc2ccccc2)C(=O)N1
TGI: > 100 µM
//
compound: CCOC(=O)C(Oc1ccc(OC)c2c1C(=O)CCC2)c1ccccc1 (stereo not given)
TGI: > 100 µM
//
compound: O=C1c2ccccc2CC12Cc1ccc3c(c1C2=O)CCCC3 (stereo not given)
TGI: > 100 µM
//
compound: O=C1OCOC2(CCCC2)C1c1ccccc1 (stereo not given)
TGI: > 100 µM
//
compound: CSC(SC)=C(C#N)C(=O)Nc1ccc(Cl)cc1
TGI: > 100 µM
//
compound: COc1ccc(Cl)cc1NC(=O)O/N=C(\Cl)C(C)C
TGI: > 59.4 µM
//
compound: N#Cc1ccc2c(-c3ccnc(NC4CC4)n3)c(-c3ccc(F)cc3)nn2c1
TGI: > 25 µM
//
compound: Cc1ccc2c(c1)CC1(Cc3cc(C)ccc3C1=O)C2=O
TGI: > 100 µM

* * *

Examples of molecules with documented TGI follow.
test system: SNB-75 CNS; experiment: NCI tumour cell line growth inhibition, 48 h

molecule: CSCSCC(CO)NC(=O)/C=C/c1c(C)[nH]c(=O)[nH]c1=O (stereo not drawn)
TGI: > 100 µM

molecule: NC1(C(=O)O)CCC(C(=O)O)CC1 (stereo not drawn)
TGI: > 100 µM

molecule: C=CCN(C(C)=O)c1cc(OCc2ccccc2)c2c(c1)c(C)cn2S(=O)(=O)c1ccccc1
TGI: > 100 µM

* * *

test system: CAKI-1 renal; assay: NCI tumour cell line growth inhibition, 48 h
Examples of compounds with documented TGI follow.
recorded.metric: TGI

compound: COC1=CC(=O)[C@@]2(C)C(C)[C@H](c3ccccc3)[C@H]2C1=O (stereo partly specified)
recorded.metric: TGI
measured.result: > 100 µM
--
compound: CCCCCCNC(=O)CCN(C(=O)O)S(=O)(=O)c1ccc(NC(=O)c2ccccc2)cc1
recorded.metric: TGI
measured.result: > 100 µM
--
compound: Cc1ccc([N+](=O)[O-])cc1S(=O)(=O)Nc1ccc(C2=NN(S(=O)(=O)c3cc([N+](=O)[O-])ccc3C)C(c3ccccc3O)C2)cc1 (stereo unspecified)
recorded.metric: TGI
measured.result: > 100 µM
--
compound: N#Cc1c(N)oc2cc3c(C#N)c(N)oc3cc12
recorded.metric: TGI
measured.result: > 100 µM
--
compound: COc1ccc(N2C(=O)[C@@H]3[C@@H]4CC(C)CC[C@@H]4c4c([nH]c5ccccc45)[C@@H]3C2=O)cc1 (stereo partly specified)
recorded.metric: TGI
measured.result: > 72.9 µM
--
compound: CCOC(=O)C(Oc1ccc(OC)c2c1C(=O)CCC2)c1ccccc1 (stereo unspecified)
recorded.metric: TGI
measured.result: > 100 µM

* * *

system: HS 578T breast; assay: NCI tumour cell line growth inhibition, 48 h
recorded.metric: TGI (µM)

compound: CCc1nnc2sc(-c3ccc(-c4ccccc4[N+](=O)[O-])o3)nn12
assayed.target: HS 578T breast
sign: >
measured.result: 100

compound: C=CCCCCCCCCCOC1C=CC(O)C(CO)O1 (centres undefined)
assayed.target: HS 578T breast
sign: >
measured.result: 100

compound: O=C(NOCCO)c1ccc2cncn2c1Nc1ccc(I)cc1F
assayed.target: HS 578T breast
sign: >
measured.result: 100

compound: Oc1ccccc1/C=N\NC(=S)Nc1ccc(F)cc1
assayed.target: HS 578T breast
sign: >
measured.result: 100

compound: c1cc(CSP234N5CCN2CCN3CCN4CC5)cc(CSP234N5CCN2CCN3CCN4CC5)c1
assayed.target: HS 578T breast
sign: =
measured.result: 69.3

compound: CC/C(=C/c1ccc(OC)cc1)[N+](=O)[O-]
assayed.target: HS 578T breast
sign: =
measured.result: 22.2

compound: COc1cc2c(c3oc4c(O)cccc4c(=O)c13)CC(C(C)(O)CCl)O2 (centres undefined)
assayed.target: HS 578T breast
sign: =
measured.result: 6.89

compound: CNC(=O)c1sc(-n2cnc3cc(OC)c(OC)cc32)cc1OCc1ccccc1C(F)(F)F
assayed.target: HS 578T breast
sign: >
measured.result: 25

compound: CCCNC(=O)c1cc(OC)c(OC)cc1NC(=O)C12CC3CC(CC(C3)C1)C2
assayed.target: HS 578T breast
sign: =
measured.result: 51.5

compound: CN1N=C(c2ccncc2)OC1c1ccc(C(F)(F)F)cc1 (centres undefined)
assayed.target: HS 578T breast
sign: >
measured.result: 100

compound: CC(C)C1OC(=O)C(Cc2ccccc2)N(C)C(=O)C(C(C)C)OC(=O)C(Cc2ccccc2)N(C)C(=O)C(C(C)C)OC(=O)C(Cc2ccccc2)N(C)C1=O (centres undefined)
assayed.target: HS 578T breast
sign: =
measured.result: 4.9

compound: COc1cc(OC)c(/C=C/S(=O)(=O)Cc2ccc(OC)c(N)n2)c(OC)c1
assayed.target: HS 578T breast
sign: >
measured.result: 100

compound: COc1ccccc1NC(=O)c1sc2ncn(CCOc3ccccc3)c(=O)c2c1C
assayed.target: HS 578T breast
sign: =
measured.result: 4.1

compound: NP1(Oc2ccc(F)cc2)=NP(N)(Oc2ccc(F)cc2)=NP(Oc2ccc(F)cc2)(Oc2ccc(F)cc2)=N1 (centres undefined)
assayed.target: HS 578T breast
sign: =
measured.result: 17.7

compound: CSc1ccc(-c2cn3ccsc3n2)cc1
assayed.target: HS 578T breast
sign: >
measured.result: 65.7

compound: COc1cc2c(cc1C)NC(=O)/C2=C/c1c(Cl)[nH]c2ccccc12
assayed.target: HS 578T breast
sign: =
measured.result: 28.7

compound: COc1cc2c3c(c4cc(OC)c(OC)cc4c2cc1OC)CN1CCC[C@H]1C3
assayed.target: HS 578T breast
sign: >
measured.result: 29.2

compound: O=C1c2ccccc2C(=O)c2c1ccc1c3ccccc3n(-c3ccccc3)c21
assayed.target: HS 578T breast
sign: =
measured.result: 42.7

compound: CCOC(=O)c1c(NS(=O)(=O)c2ccccc2)sc2c1CCCC2
assayed.target: HS 578T breast
sign: >
measured.result: 100

compound: O=[N+]([O-])c1ccc(CSC2=C(c3ccc(Cl)cc3)S/C(=C3\SC(SCc4ccc([N+](=O)[O-])cc4)=C(c4ccc(Cl)cc4)S3)S2)cc1
assayed.target: HS 578T breast
sign: >
measured.result: 100

compound: C/C(=C\COP(=O)(O)OP(=O)(O)O)CC/C=C(\C)CNc1c(F)c(F)c(F)c(F)c1F
assayed.target: HS 578T breast
sign: >
measured.result: 100

compound: CN1CCN(Cc2ccc(NC(=O)c3cncc(C#Cc4c(N)ncc5ccccc45)c3)cc2C(F)(F)F)CC1
assayed.target: HS 578T breast
sign: =
measured.result: 1.86

compound: COC(=O)C(=O)C(C(=O)C(=O)Nc1cc(C)ccc1C)c1nc2ccccc2[nH]c1=O (centres undefined)
assayed.target: HS 578T breast
sign: >
measured.result: 100

compound: C[N+]1(CC[N+]2(C)CCCC2c2cccnc2)CCCC1c1cccnc1 (centres undefined)
assayed.target: HS 578T breast
sign: >
measured.result: 100

compound: CCOC(=O)Nc1cc2c(c(N)n1)N=C(c1ccc(Cl)cc1Cl)CN2
assayed.target: HS 578T breast
sign: =
measured.result: 1.41

compound: CC[C@H](C)[C@H](NC(=O)CN(C)C)C(=O)N(C)[C@H](C[C@@H](OC(C)=O)c1nc(C(=O)NC23C4C5C2C2C3C4C52C(=O)OC)cs1)C(C)C (some centres undefined)
assayed.target: HS 578T breast
sign: >
measured.result: 33.2

compound: O=C1c2ccccc2CC12Cc1ccc3c(c1C2=O)CCCC3 (centres undefined)
assayed.target: HS 578T breast
sign: =
measured.result: 48.3

compound: C=C(C)[C@@H]1CC[C@]2(C(=O)O)CC[C@]3(C)[C@H](CC[C@@H]4[C@@]5(C)CCC(N)C(C)(C)[C@@H]5CC[C@]43C)[C@@H]12 (some centres undefined)
assayed.target: HS 578T breast
sign: =
measured.result: 5.38

compound: C1CCC(CC2CCC(NC3=NCCO3)CC2)CC1 (centres undefined)
assayed.target: HS 578T breast
sign: =
measured.result: 40.6

compound: c1c2c(cc3c1OCO3)-c1ncc3cc4c(cc3c1C2)OCO4
assayed.target: HS 578T breast
sign: >
measured.result: 94.8

compound: O=C1N[C@@H]([C@H]2CC[C@H](Cl)CN2)C(=O)N[C@H]1[C@H]1CC[C@H](Cl)CN1
assayed.target: HS 578T breast
sign: =
measured.result: 91.7

compound: O=C1c2ccccc2-c2cn(Cc3ccccc3)c3cccc(c23)C1c1cccnc1 (centres undefined)
assayed.target: HS 578T breast
sign: =
measured.result: 45

compound: COc1ccc(/C=C\c2cc(OC)c(OC)c(OC)c2)cc1NC(=O)/C=C/c1cc(OC)c(OC)c(OC)c1
assayed.target: HS 578T breast
sign: >
measured.result: 100

compound: COc1ccc(C(CC(=O)c2cccs2)C(=O)c2ccc3c(c2)OCO3)cc1 (centres undefined)
assayed.target: HS 578T breast
sign: >
measured.result: 100
